Biological target: HRP3 PWWP (1-110) WT (UniProt Q9Y3E1 1-110)
Sequence (Q9Y3E1 1-110): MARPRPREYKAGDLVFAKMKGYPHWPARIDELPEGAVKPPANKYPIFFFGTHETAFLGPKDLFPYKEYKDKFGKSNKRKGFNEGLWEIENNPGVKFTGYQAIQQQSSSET
Assay: MST; MST: 50 mM KCl, 10 mM Na cacodylate pH 6.5, 2 mM DTT, 200 nM FAM-dsDNA; ITC: 10 mM PBS pH 7.0, 50 mM NaCl, 2 mM b-ME, 20 C; nucleosome EMSA: 20 mM Tris pH 7.5
Conditions: protein: recombinant; tags: none (His-SUMO removed); label: 5'-FAM (MST); blunt
assayReadout: Kd

In [3]: df
Out[3]:
                                     binder  assayreadout  result
0  16-mer-random (dsDNA) DNA 1: CAGGCTGGTCTTGAAC DNA 2: GTTCAAGACCAGCCTG            Kd  3.2 µM
